Taken from the supplement of paper PMC10307832.

- System: LXF-289
- measurement_description: relative viability (nuclei count vs DMSO), 5 days (fraction); higher = more cells survive
- condition_summary: first compound 0.253 µM
parameter: relative viability
Give bare numbers.

Look up relative viability of O=c1cc(-c2cccc3c2Sc2ccccc2S3)oc(N2CCOCC2)c1 + C[C@]1(O)C[C@@H](c2nc(-c3ccc4ccc(-c5ccccc5)nc4c3)c3c(N)nccn32)C1 [Linsitinib] (partner 1 µM) and report it. 0.976

Look up relative viability of O=c1cc(-c2cccc3c2Sc2ccccc2S3)oc(N2CCOCC2)c1 + Cc1cc(Nc2cc(N3CCN(C)CC3)nc(Sc3ccc(NC(=O)C4CC4)cc3)n2)n[nH]1 [Tozasertib] (partner 0.1 µM) and report it. 0.164

Look up relative viability of O=c1cc(-c2cccc3c2Sc2ccccc2S3)oc(N2CCOCC2)c1 + CS(=O)(=O)N1CCN(Cc2cc3nc(-c4cccc5[nH]ncc45)nc(N4CCOCC4)c3s2)CC1 [Pictilisib] (partner 1 µM) and report it. 0.791

Look up relative viability of COc1nc(C)cnc1NS(=O)(=O)c1cccnc1-c1ccc(-c2nnco2)cc1 [Zibotentan] + C[C@@H](Oc1cc(-c2cnn(C3CCNCC3)c2)cnc1N)c1c(Cl)ccc(F)c1Cl [Crizotinib] (partner 1 µM) and report it. 0.804

New cases:
Look up relative viability of COc1nc(C)cnc1NS(=O)(=O)c1cccnc1-c1ccc(-c2nnco2)cc1 [Zibotentan] + COc1cc2c(Oc3ccc(NC(=O)C4(C(=O)Nc5ccc(F)cc5)CC4)cc3F)ccnc2cc1OCCCN1CCOCC1 [Foretinib] (partner 0.25 µM) and report it. 0.95

---

- System: HCC-44
- measurement_description: relative viability (nuclei count vs DMSO), 5 days (fraction); higher = more cells survive
- condition_summary: first compound 1 µM
I'd appreciate it if you could supply relative viability values for the items below.
One number for each entry.

Some compounds with recorded relative viability:
Look up relative viability of CCN(CC)CCCCNc1ncc2cc(-c3cc(OC)cc(OC)c3)c(NC(=O)NC(C)(C)C)nc2n1 + NC(=O)Nc1cc(-c2cccc(F)c2)sc1C(=O)N[C@H]1CCCNC1 [AZD7762] (partner 0.2 µM) and report it. 1.12

Look up relative viability of CCN(CC)CCCCNc1ncc2cc(-c3cc(OC)cc(OC)c3)c(NC(=O)NC(C)(C)C)nc2n1 + CC(=O)Nc1cccc(-n2c(=O)n(C3CC3)c(=O)c3c(Nc4ccc(I)cc4F)n(C)c(=O)c(C)c32)c1 [Trametinib] (partner 0.02 µM) and report it. 0.931

Look up relative viability of CCN(CC)CCCCNc1ncc2cc(-c3cc(OC)cc(OC)c3)c(NC(=O)NC(C)(C)C)nc2n1 + CS(=O)(=O)CCNCc1ccc(-c2ccc3ncnc(Nc4ccc(OCc5cccc(F)c5)c(Cl)c4)c3c2)o1 [Lapatinib] (partner 2 µM) and report it. 0.865

Look up relative viability of O=c1cc(N2CCOCC2)oc2c(-c3cccc4c3sc3ccccc34)cccc12 + COc1cccc2cc(-c3nc([C@H]4CC[C@H](C(=O)O)CC4)n4ncnc(N)c34)[nH]c12 [OSI-027] (partner 0.5 µM) and report it. 0.463

Look up relative viability of O=c1cc(N2CCOCC2)oc2c(-c3cccc4c3sc3ccccc34)cccc12 + C[C@]1(O)C[C@@H](c2nc(-c3ccc4ccc(-c5ccccc5)nc4c3)c3c(N)nccn32)C1 [Linsitinib] (partner 1 µM) and report it. 0.584

Look up relative viability of CCN(CC)CCCCNc1ncc2cc(-c3cc(OC)cc(OC)c3)c(NC(=O)NC(C)(C)C)nc2n1 + COc1cccc2cc(-c3nc([C@H]4CC[C@H](C(=O)O)CC4)n4ncnc(N)c34)[nH]c12 [OSI-027] (partner 0.5 µM) and report it. 0.479

Look up relative viability of CCN(CC)CCCCNc1ncc2cc(-c3cc(OC)cc(OC)c3)c(NC(=O)NC(C)(C)C)nc2n1 + CC1(C)CCC(c2ccc(Cl)cc2)=C(CN2CCN(c3ccc(C(=O)NS(=O)(=O)c4ccc(N[C@H](CCN5CCOCC5)CSc5ccccc5)c(S(=O)(=O)C(F)(F)F)c4)cc3)CC2)C1 [Navitoclax] (partner 0.5 µM) and report it. 0.937

Look up relative viability of O=c1cc(N2CCOCC2)oc2c(-c3cccc4c3sc3ccccc34)cccc12 + C[C@@H](Oc1cc(-c2cnn(C3CCNCC3)c2)cnc1N)c1c(Cl)ccc(F)c1Cl [Crizotinib] (partner 1 µM) and report it. 0.776

Next item in the queue.
Look up relative viability of O=c1cc(N2CCOCC2)oc2c(-c3cccc4c3sc3ccccc34)cccc12 + Cc1nc(NC(=O)N2CCC[C@H]2C(N)=O)sc1-c1ccnc(C(C)(C)C(F)(F)F)c1 [Alpelisib] (partner 2 µM) and report it. 0.697

---

- System: NCI-H2085
- measurement_description: relative viability (nuclei count vs DMSO), 5 days (fraction); higher = more cells survive
- condition_summary: first compound 0.253 µM
I'd appreciate it if you could supply relative viability values for the items below.
Numbers only.

Some compounds with recorded relative viability:
Look up relative viability of COc1nc(C)cnc1NS(=O)(=O)c1cccnc1-c1ccc(-c2nnco2)cc1 [Zibotentan] + CC1(C)CCC(c2ccc(Cl)cc2)=C(CN2CCN(c3ccc(C(=O)NS(=O)(=O)c4ccc(N[C@H](CCN5CCOCC5)CSc5ccccc5)c(S(=O)(=O)C(F)(F)F)c4)cc3)CC2)C1 [Navitoclax] (partner 0.5 µM) and report it. 1.08

Look up relative viability of COc1nc(C)cnc1NS(=O)(=O)c1cccnc1-c1ccc(-c2nnco2)cc1 [Zibotentan] + CC(=O)c1c(C)c2cnc(Nc3ccc(N4CCNCC4)cn3)nc2n(C2CCCC2)c1=O [Palbociclib] (partner 0.5 µM) and report it. 0.466

Look up relative viability of O=c1cc(-c2cccc3c2Sc2ccccc2S3)oc(N2CCOCC2)c1 + O=C(c1cc(Cc2n[nH]c(=O)c3ccccc23)ccc1F)N1CCN(C(=O)C2CC2)CC1 [Olaparib] (partner 8 µM) and report it. 0.846

Look up relative viability of O=c1cc(-c2cccc3c2Sc2ccccc2S3)oc(N2CCOCC2)c1 + COc1cc2c(Oc3ccc(NC(=O)C4(C(=O)Nc5ccc(F)cc5)CC4)cc3F)ccnc2cc1OCCCN1CCOCC1 [Foretinib] (partner 0.25 µM) and report it. 1.21

Look up relative viability of O=c1cc(-c2cccc3c2Sc2ccccc2S3)oc(N2CCOCC2)c1 + CS(=O)(=O)CCNCc1ccc(-c2ccc3ncnc(Nc4ccc(OCc5cccc(F)c5)c(Cl)c4)c3c2)o1 [Lapatinib] (partner 2 µM) and report it. 0.86

Look up relative viability of O=c1cc(-c2cccc3c2Sc2ccccc2S3)oc(N2CCOCC2)c1 + N=C(N)NC(=N)NCCc1ccccc1 [Phenformin] (partner 250 µM) and report it. 0.702

Look up relative viability of COc1nc(C)cnc1NS(=O)(=O)c1cccnc1-c1ccc(-c2nnco2)cc1 [Zibotentan] + N=C(N)NC(=N)NCCc1ccccc1 [Phenformin] (partner 250 µM) and report it. 0.699

Look up relative viability of COc1nc(C)cnc1NS(=O)(=O)c1cccnc1-c1ccc(-c2nnco2)cc1 [Zibotentan] + O=C(CCCCCCC(=O)Nc1ccccc1)NO [Vorinostat] (partner 1 µM) and report it. 0.766

Count: 2. Required value per item: relative viability.
1. COc1nc(C)cnc1NS(=O)(=O)c1cccnc1-c1ccc(-c2nnco2)cc1 [Zibotentan] + Nc1ncn([C@H]2C[C@H](O)[C@@H](CO)O2)c(=O)n1 [Decitabine] (partner 2 µM)
2. COc1nc(C)cnc1NS(=O)(=O)c1cccnc1-c1ccc(-c2nnco2)cc1 [Zibotentan] + Cc1nc(Nc2ncc(C(=O)Nc3c(C)cccc3Cl)s2)cc(N2CCN(CCO)CC2)n1 [Dasatinib] (partner 0.075 µM)

[0.54, 0.227]

---

I'd appreciate it if you could supply relative viability values for the items below.
- Tested on: NCI-H838
- measurement_description: relative viability (nuclei count vs DMSO), 5 days (fraction); higher = more cells survive
- condition_summary: first compound 0.3162 µM
Give bare numbers.

Some molecules with recorded relative viability:
Recall the reported relative viability of CCN(CC)CCCCNc1ncc2cc(-c3cc(OC)cc(OC)c3)c(NC(=O)NC(C)(C)C)nc2n1 + CC(=O)c1c(C)c2cnc(Nc3ccc(N4CCNCC4)cn3)nc2n(C2CCCC2)c1=O [Palbociclib] (partner 0.5 µM) on NCI-H838 and write it down. 0.213

Recall the reported relative viability of CCN(CC)CCCCNc1ncc2cc(-c3cc(OC)cc(OC)c3)c(NC(=O)NC(C)(C)C)nc2n1 + O=C(c1cc(Cc2n[nH]c(=O)c3ccccc23)ccc1F)N1CCN(C(=O)C2CC2)CC1 [Olaparib] (partner 8 µM) on NCI-H838 and write it down. 0.745

Recall the reported relative viability of CCN(CC)CCCCNc1ncc2cc(-c3cc(OC)cc(OC)c3)c(NC(=O)NC(C)(C)C)nc2n1 + Cc1cc(Nc2cc(N3CCN(C)CC3)nc(Sc3ccc(NC(=O)C4CC4)cc3)n2)n[nH]1 [Tozasertib] (partner 0.1 µM) on NCI-H838 and write it down. 0.271

Recall the reported relative viability of CCN(CC)CCCCNc1ncc2cc(-c3cc(OC)cc(OC)c3)c(NC(=O)NC(C)(C)C)nc2n1 + Nc1ncn([C@H]2C[C@H](O)[C@@H](CO)O2)c(=O)n1 [Decitabine] (partner 2 µM) on NCI-H838 and write it down. 0.422

Recall the reported relative viability of O=c1cc(N2CCOCC2)oc2c(-c3cccc4c3sc3ccccc34)cccc12 + O=C(c1cc(Cc2n[nH]c(=O)c3ccccc23)ccc1F)N1CCN(C(=O)C2CC2)CC1 [Olaparib] (partner 8 µM) on NCI-H838 and write it down. 0.769

Next item in the queue.
Recall the reported relative viability of O=c1cc(N2CCOCC2)oc2c(-c3cccc4c3sc3ccccc34)cccc12 + COc1cc2c(Oc3ccc(NC(=O)C4(C(=O)Nc5ccc(F)cc5)CC4)cc3F)ccnc2cc1OCCCN1CCOCC1 [Foretinib] (partner 0.25 µM) on NCI-H838 and write it down. 0.958
